# Target Under Test: PA-I galactophilic lectin (Pseudomonas aeruginosa (strain ATCC 15692 / PAO1 / 1C / PRS 101 / LMG12228))
# Sequence (Q05097 whole entry): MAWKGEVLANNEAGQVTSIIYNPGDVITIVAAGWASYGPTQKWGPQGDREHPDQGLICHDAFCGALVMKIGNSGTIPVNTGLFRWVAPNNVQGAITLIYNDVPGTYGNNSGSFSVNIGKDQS
# Procedure Summary: Binding affinity to Pseudomonas aeruginosa LecA expressed in Escherichia coli BL21 (DE3) cells assessed as dissociation constant by isothermal titration calorimetry
Threshold-based label: Kd under 8 µM gives 1, Kd not under 8 µM gives 0.

Here are 5 compounds together with their reported answers.
INSERT INTO measurements (compound, classification) VALUES
  ('C=C(c1ccc(S[C@@H]2O[C@H](CO)[C@H](O)[C@H](O)[C@H]2O)cc1)c1cccc(S[C@H]2O[C@@H](CO)[C@@H](O)[C@@H](O)[C@@H]2O)c1 (single isomer, unassigned)', 1),
  ('CC(C)c1ccc(S[C@@H]2O[C@H](CO)[C@H](O)[C@H](O)[C@H]2O)cc1', 1),
  ('C=C(c1ccc(OC)cc1)c1ccc(S[C@@H]2O[C@H](CO)[C@H](O)[C@H](O)[C@H]2O)cc1', 1),
  ('C=C(c1cc(OC)c(OC)c(OC)c1)c1ccc(OC)c(S[C@@H]2O[C@H](CO)[C@H](O)[C@H](O)[C@H]2OC(C)=O)c1', 1),
  ('C=C(c1ccc(S[C@@H]2O[C@H](CO)[C@H](O)[C@H](O)[C@H]2O)cc1)c1ccc2ccccc2c1', 0);

q: Record COc1ccc(C(=O)c2cc(OC)c(OC)c(OC)c2)cc1S[C@@H]1O[C@H](CO)[C@H](O)[C@H](O)[C@H]1O : is its Kd strictly below 8 µM?
a: 1

q: Record O=Cc1ccc(S[C@@H]2O[C@H](CO)[C@H](O)[C@H](O)[C@H]2O)cc1 : is its Kd strictly below 8 µM?
a: 0

q: Record COc1ccc(S[C@@H]2O[C@H](CO)[C@H](O)[C@H](O)[C@H]2O)cc1 : is its Kd strictly below 8 µM?
a: 0
